Tested on: HIV-1
condition.summary: read-out: concentration for half maximal inactivation of virus, peptide in the medium during infection; after 100-fold dilution in culture medium
value.kind: pIC50
Scale note: pIC50 = -log10(concentration in M).

Item Se-TYICEVEDQKEE has what recorded pIC50? 8.23

The reported numbers originate from patent US20240238428A1.
